# TEST SUMMARY: in vivo
# Set-up: species or system dogs
# CONDITIONS USED: dog
OBSERVED PROPERTY: NOAEL at 3 months (mg/kg)
Answers are plain numbers, in mg/kg.

Ask: I'd like to know its NOAEL at 3 months. The compound in question is CC(C)(O)c1cc(Nc2cc(Oc3cn(C4CC4)nc3C3CCOCC3)ccn2)ccn1
Reply: 7.5
